Experiment: Multiple-dose oral pharmacokinetics of indinavir (plasma) with co-administered Sophora preparations
Type: in vivo, Male Wistar rats
Details: male, Wistar, rat, po, 40 mg/kg, indinavir 40 mg/kg orally, multiple dosage, with Sophora extract 1.26 g/kg/day, mean ± S.E.M., read-out: T max of indinavir
Readout: Tmax

compound="CC(C)(C)NC(=O)[C@@H]1CN(Cc2cccnc2)CCN1C[C@@H](O)C[C@@H](Cc1ccccc1)C(=O)N[C@H]1c2ccccc2C[C@H]1O [indinavir]" result_value="30 min"
